// provenance: PubChem BioAssay (NCI)

test system: NCI-H522 lung; experiment: NCI tumour cell line growth inhibition, 48 h
Listing: GI50 of selected compounds

[
  {
    "COMPOUND": "S=C(c1ccc2c(c1)OCO2)N1CCN(c2cccc(Cl)c2)CC1",
    "GI50": "382 nM"
  },
  {
    "COMPOUND": "O=S(=O)(CCNCc1ccc(-c2ccc3ncnc(Nc4ccc(OCc5cccc(F)c5)c(Cl)c4)c3c2)o1)c1ccccc1",
    "GI50": "> 19500 nM"
  },
  {
    "COMPOUND": "CC(=O)OC1Oc2cc(C)c(C)cc2-c2oc(=O)c(-c3ccc(F)cc3)cc21 (centres undefined)",
    "GI50": "4530 nM"
  },
  {
    "COMPOUND": "COc1ccc2c(c1)/C(=C\\c1c(Cl)n(C)c3ccccc13)C(=O)N2",
    "GI50": "726 nM"
  },
  {
    "COMPOUND": "C/C(=C\\CCc1ccsc1)CC/C=C(\\C)CCCN1CCC(CO)CC1",
    "GI50": "1900 nM"
  },
  {
    "COMPOUND": "N=c1n(Cc2ccccc2)c(N)cc(=O)n1Cc1ccccc1",
    "GI50": "503 nM"
  },
  {
    "COMPOUND": "COc1ccc(CCN2CCC(Nc3nc4ccccc4n3Cc3ccc(F)cc3)CC2)cc1",
    "GI50": "2370 nM"
  },
  {
    "COMPOUND": "Cc1ccc(NC2=C(Cl)C(=O)N(Cc3ccccc3)C2=O)cc1Cl",
    "GI50": "2970 nM"
  },
  {
    "COMPOUND": "CCOC(=O)c1c(Cl)c2c(n1Cc1cccc(OC)c1)-c1oncc1CC2",
    "GI50": "351 nM"
  },
  {
    "COMPOUND": "CC1OC(n2c3ccccc3c3c4c(c5c6ccccc6[nH]c5c32)C(=O)N(CCN2CCOCC2)C4=O)CC(O)C1O (centres undefined)",
    "GI50": "1520 nM"
  },
  {
    "COMPOUND": "Cc1nn(-c2ccccc2)c2nc3c(nc12)C1=NCCN1C(c1ccc(Cl)cc1)N3 (centres undefined)",
    "GI50": "2830 nM"
  },
  {
    "COMPOUND": "COc1cc(NC(=O)CSc2nc3ccccc3c(=O)n2CCc2ccccc2)cc(OC)c1OC",
    "GI50": "1650 nM"
  },
  {
    "COMPOUND": "O=C(NCCNc1nccc(-c2c(-c3ccc(F)cc3)nc3sccn23)n1)c1ccccc1",
    "GI50": "11100 nM"
  },
  {
    "COMPOUND": "COc1nc(N)nc2c1ncn2[C@@H]1O[C@H](CO)[C@@H](O)[C@@H]1O",
    "GI50": "> 100000 nM"
  },
  {
    "COMPOUND": "Nc1ccc(-c2nc3ccccc3o2)cc1S",
    "GI50": "35500 nM"
  },
  {
    "COMPOUND": "CCN(CC)CCCCNc1ncc2cc(-c3cc(OC)cc(OC)c3)c(NC(=O)NC(C)(C)C)nc2n1",
    "GI50": "6450 nM"
  },
  {
    "COMPOUND": "COC1=CC(c2ccc[nH]2)=N/C1=C\\c1[nH]c(C)c(C(C)=O)c1C",
    "GI50": "1600 nM"
  },
  {
    "COMPOUND": "Cc1cc(C)c2nc3nc(C)cc(C)c3c(N)c2c1",
    "GI50": "5460 nM"
  },
  {
    "COMPOUND": "O=C(Cc1ccccc1)NC(c1ccc(Cl)cc1)c1c(O)ccc2ccccc12 (centres undefined)",
    "GI50": "2820 nM"
  }
]
